Assay: Passive permeability across RRCK cells
Assay type: ADME, cell-based, Canis lupus familiaris, MDCKII-LE
Settings: dog, MDCK; read-out: permeability
value-kind: Papp (×10⁻⁶ cm/s)
Please give a number only; it is taken to be in ×10⁻⁶ cm/s.

Recorded Papp, per entry:
| smiles-text | Papp [×10⁻⁶ cm/s] |
| --- | --- |
| Cc1ccc(Oc2cc(C(=O)Nc3cnc(C)cn3)cc3oc(C)cc23)cc1 | 0.3 |
| Cc1cnc(NC(=O)c2cc(Oc3cnc(C(=O)N4CCC4)cn3)c3cc(C)oc3c2)cn1 | 17.4 |
| Cc1cc2c(Oc3cnc(C(=O)N4CC(C)(C)C4)cn3)cc(C(=O)Nc3cnccn3)cc2o1 | 7.7 |
| Cc1cc2c(Oc3cnc(C(=O)N4CC(C)C4)cn3)cc(C(=O)Nc3cnccn3)cc2o1 | 14.9 |
| Cc1cc2c(Oc3cnc(C(=O)N4CC(C)(O)C4)cn3)cc(C(=O)Nc3cnccn3)cc2o1 | 9 |

Query block: Fill in: Papp of `Cc1cnc(NC(=O)c2cc(Oc3ccc(C(=O)N(C)C)cc3)c3cc(C)oc3c2)cn1` is ___
Result block: 5.9

Query block: Also `CCN(C)C(=O)c1cnc(Oc2cc(C(=O)Nc3cnc(C)cn3)cc3oc(C)cc23)cn1` , if possible.
Result block: 24.1

Query block: Also `Cc1cnc(NC(=O)c2cc(Oc3cnc(C(=O)N4CCCCC4)cn3)c3cc(C)oc3c2)cn1` , if possible.
Result block: 13.3

Query block: Also `CCc1cnc(NC(=O)c2cc(Oc3cnc(C(=O)N(C)C)cn3)c3cc(C)oc3c2)cn1` , if possible.
Result block: 23.7

Query block: Also `Cc1cnc(NC(=O)c2cc(Oc3cnc(C(=O)N4CCCC4)cn3)c3cc(C)oc3c2)cn1` , if possible.
Result block: 15.8

Query block: Also `Cc1cnc(NC(=O)c2cc(Oc3ccc(C#N)cc3)c3cc(C)oc3c2)cn1` , if possible.
Result block: 1.5

Query block: Also `CNC(=O)c1cnc(Oc2cc(C(=O)Nc3cnc(C)cn3)cc3oc(C)cc23)cn1` , if possible.
Result block: 20.9

Query block: Also `Cc1cnc(NC(=O)c2cc(Oc3ccc(C(=O)N(C)C)nc3)c3cc(C)oc3c2)cn1` , if possible.
Result block: 28.5

Query block: Also `Cc1cc2c(Oc3cnc(C(=O)N(C)C)cn3)cc(C(=O)Nc3cnccn3)cc2o1` , if possible.
Result block: 30

Query block: Also `Cc1cc2c(Oc3cnc(C(=O)N(C)C)cn3)cc(C(=O)Nc3cnc(C(F)(F)F)cn3)cc2o1` , if possible.
Result block: 9.7

Query block: Also `COC1CN(C(=O)c2cnc(Oc3cc(C(=O)Nc4cnccn4)cc4oc(C)cc34)cn2)C1` , if possible.
Result block: 21.8

Query block: Also `Cc1cc2c(Oc3cnc(C(=O)N4CC5(COC5)C4)cn3)cc(C(=O)Nc3cnccn3)cc2o1` , if possible.
Result block: 19.9

###

Target: Hexokinase-4 (Homo sapiens, UniProt P35557)
Sequence (P35557 whole entry): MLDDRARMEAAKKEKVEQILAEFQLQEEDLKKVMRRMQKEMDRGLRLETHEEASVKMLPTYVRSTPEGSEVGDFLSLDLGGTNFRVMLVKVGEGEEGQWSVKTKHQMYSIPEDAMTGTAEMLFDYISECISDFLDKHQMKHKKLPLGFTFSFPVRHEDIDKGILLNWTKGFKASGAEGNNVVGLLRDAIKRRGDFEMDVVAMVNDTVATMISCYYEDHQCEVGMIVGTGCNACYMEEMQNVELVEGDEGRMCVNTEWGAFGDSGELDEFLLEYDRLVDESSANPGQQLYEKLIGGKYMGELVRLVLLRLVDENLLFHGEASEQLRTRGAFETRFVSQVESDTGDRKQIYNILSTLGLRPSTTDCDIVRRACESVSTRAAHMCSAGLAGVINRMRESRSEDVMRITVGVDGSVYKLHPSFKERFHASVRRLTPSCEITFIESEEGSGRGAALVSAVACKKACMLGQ
value-kind: EC50 (nM)
Please give a number only; it is taken to be in nM.

Recorded EC50, per entry:
| smiles-text | target-or-system | EC50 [nM] |
| --- | --- | --- |
| Cc1cc2c(Oc3cnc(C(=O)N4CC5(COC5)C4)cn3)cc(C(=O)Nc3cnccn3)cc2o1 | Hexokinase-4 (Homo sapiens, UniProt P35557) | 2170 |
| Cc1cc2c(Oc3cnc(C(=O)N(C)C)cn3)cc(C(=O)Nc3ccn(C)n3)cc2o1 | Hexokinase-4 (Homo sapiens, UniProt P35557) | 331 |
| Cc1cnc(NC(=O)c2cc(Oc3cnc(C(=O)N4CCCCC4)cn3)c3cc(C)oc3c2)cn1 | Hexokinase-4 (Homo sapiens, UniProt P35557) | 261 |

Now look at this one.
Query block: Fill in: EC50 of `Cc1cnc(NC(=O)c2cc(Oc3ccc(C(=O)N(C)C)nc3)c3cc(C)oc3c2)cn1` is ___
Result block: 480
